# Experiment notes: chemical genetic growth profiling, strain panel (AID 1159580);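 further: tested at 20 µM; growth read once vehicle control cultures reached saturation at 30 °C; 1 = growth at the plate median or of vehicle wells; lower values mean less growth of the strain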
# Conditions used: S. cerevisiae deletion strains, growth OD, locus YKR026C, strain gcn3, active compounds read low
Out of some 5,500 compounds screened, about 2,000 (36%) were called active. Roughly 18% stayed inconclusive and do not appear here. This is one part of the list.
Recorded metric: normalized growth

[[record]]
molecule = "CNC(C)C(O)c1ccccc1 (centres undefined)"
recorded_metric = "normalized growth"
endpoint_value = 1.01

[[record]]
molecule = "C[C@@H]1CC[C@@]2(OC1)OC1CC3C4CC=C5C[C@@H](O)CC[C@]5(C)C4CC[C@]3(C)C1[C@@H]2C (some centres undefined)"
recorded_metric = "normalized growth"
endpoint_value = 1

[[record]]
molecule = "NC(=O)NCCCC(N)C(=O)O (centres undefined)"
recorded_metric = "normalized growth"
endpoint_value = 1

[[record]]
molecule = "Oc1cc2c(cc1O)C1c3ccc(O)c(O)c3OCC1(O)C2 (centres undefined)"
recorded_metric = "normalized growth"
endpoint_value = 1.01


Value source: PubChem BioAssay AID1159580
